Where these numbers come from: the supplement of paper PMC10219994

B1: library; a variant is named by its letters at N, in order (parent)
chain: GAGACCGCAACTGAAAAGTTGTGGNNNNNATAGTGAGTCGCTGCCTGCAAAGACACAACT

variants of: B1; experiment: ligation selection enrichment (abundance after / before one-round selection) (fold); higher = more template-directed ligation activity; settings: with T7Psub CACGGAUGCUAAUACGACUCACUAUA; MgCl2 25 mM; 42 °C; 4 h; pH 8.5
Recorded ligation selection enrichment by entry
Response field accepts a number only; no unit should be typed.

Some variants with known ligation selection enrichment results, for comparison:
BIOPOLYMER_SEQUENCE	VALUE_MEASURED
GAGACCGCAACTGAAAAGTTGTGGTGCACATAGTGAGTCGCTGCCTGCAAAGACACAACT	0.235
GAGACCGCAACTGAAAAGTTGTGGAGATGATAGTGAGTCGCTGCCTGCAAAGACACAACT	0.602
GAGACCGCAACTGAAAAGTTGTGGCGGGCATAGTGAGTCGCTGCCTGCAAAGACACAACT	0.0737

Query: What does the record list as ligation selection enrichment for GAGACCGCAACTGAAAAGTTGTGGTATAAATAGTGAGTCGCTGCCTGCAAAGACACAACT ?
Response: 0.182

Query: For GAGACCGCAACTGAAAAGTTGTGGTGTTAATAGTGAGTCGCTGCCTGCAAAGACACAACT then?
Response: 0.219
